TEST PROTOCOL: photoluminescence quantum yield (fraction); solvent given as SMILES
ASSAY CONDITIONS: in Cc1ccccc1
Please provide measured photoluminescence quantum yield for the entries that follow.
Output spec: single numeric token, no unit.

Endpoint output: photoluminescence quantum yield of `COc1nc(Nc2ccc3c4c(cccc24)C(=O)c2ccccc2-3)nc(OC)n1` . Value? 0.56

Endpoint output: photoluminescence quantum yield of `COCCC1=Cc2nc1ccc1[nH]c(cc1CCOC)c1nc(ccc3[nH]c2cc3CCOC)C(CCOC)=C1` . Value? 0.47

Endpoint output: photoluminescence quantum yield of `COc1ccc(-c2nnc(-c3cc(-c4nnc(-c5ccc(OC)cc5)o4)c(-n4c5ccccc5c5ccccc54)cc3-n3c4ccccc4c4ccccc43)o2)cc1` . Value? 0.133

Endpoint output: photoluminescence quantum yield of `O=C1c2cc(F)ccc2-c2cnccc21` . Value? 0.012

Endpoint output: photoluminescence quantum yield of `CC(=O)c1c2c(cc3c(N(C)C)cccc13)CCC2` . Value? 0.47

Endpoint output: photoluminescence quantum yield of Cc1ccc(N2C(c3ccccc3N)=NC(c3ccccc3)C2c2ccccc2)cc1 (centres undefined) . Value? 0.009

Endpoint output: photoluminescence quantum yield of `CCn1c2ccccc2c2cc(C#Cc3cc(C#Cc4ccc5c(c4)c4ccccc4n5CC)nc(N4CCCCC4)n3)ccc21` . Value? 0.21

Endpoint output: photoluminescence quantum yield of `Cn1cc(-c2nc3ccccc3nc2/C=C/N2CCCC2)c2ccccc21` . Value? 0.375

Endpoint output: photoluminescence quantum yield of `CC(C)(C)c1ccc(-c2nc3ccccc3nc2-c2cc(-c3nc4ccccc4nc3-c3ccc(C(C)(C)C)cc3)cc(-n3c4ccccc4c4ccccc43)c2)cc1` . Value? 0.35

----------
TEST PROTOCOL: photoluminescence quantum yield (fraction); solvent given as SMILES
ASSAY CONDITIONS: in C1CCOC1
OBSERVABLE: photoluminescence quantum yield

Endpoint output: photoluminescence quantum yield of `CCN(CC)c1ccc2cc(/C=C/c3cccc[n+]3CCCS(=O)(=O)[O-])c(=O)oc2c1` . Value? 0.14

Endpoint output: photoluminescence quantum yield of `CCCCN1c2ccccc2Sc2cc(/C=C/c3nc4nc5ccccc5nc4s3)ccc21` . Value? 0.01

Endpoint output: photoluminescence quantum yield of `N#Cc1cc2ccccc2oc1=N` . Value? 0.0681

Endpoint output: photoluminescence quantum yield of `CC1=[N+]2C(=C(c3c4ccccc4cc4ccccc34)c3ccc(C)n3[B-]2(F)F)C=C1` . Value? 0.002

Endpoint output: photoluminescence quantum yield of `CC(C)(C)c1ccc(-c2c(-c3ccc4c5ccccc5n(-c5ccccc5)c4c3)c(C#N)c(-c3ccc4c5ccccc5n(-c5ccccc5)c4c3)c(-c3ccc(C(C)(C)C)cc3)c2-c2ccc(C(C)(C)C)cc2)cc1` . Value? 0.457

Endpoint output: photoluminescence quantum yield of `C1=C(c2ccccc2)C(c2ccccc2)=CC1c1ccccc1` . Value? 0.0137

Endpoint output: photoluminescence quantum yield of `F[B-]1(F)n2c(-c3cccs3)cc(-c3cccs3)c2N=C2C(c3cccs3)=CC(c3cccs3)=[N+]21` . Value? 0.12

Endpoint output: photoluminescence quantum yield of `Cc1ccc(C2=C3C=CC([Se]c4ccccc4)=[N+]3[B-](F)(F)n3c([Se]c4ccccc4)ccc32)cc1` . Value? 0.56

----------
TEST PROTOCOL: photoluminescence quantum yield (fraction); solvent given as SMILES
ASSAY CONDITIONS: in C1CCOC1
OBSERVABLE: photoluminescence quantum yield

Endpoint output: photoluminescence quantum yield of `CCCCCCc1ccsc1-c1cc2c3cc(-c4sccc4CCCCCC)c4nc(C(F)(F)C(F)(F)C(F)(F)F)nc5c(-c6sccc6CCCCCC)cc(c6cc(-c7sccc7CCCCCC)c7nc(C(F)(F)C(F)(F)C(F)(F)F)nc1c7c26)c3c45` . Value? 0.65

Endpoint output: photoluminescence quantum yield of `c1cc2c([nH]c3c4[nH]c5sccc5c4c4nsnc4c23)s1` . Value? 0.38

Endpoint output: photoluminescence quantum yield of `CCCCCCc1ccc(-n2c3[n+](c4c5ccccc5c5ccccc5c42)[B-](C)(C)c2cc(-n4c5ccccc5c5ccccc54)ccc2-3)cc1` . Value? 0.82

Endpoint output: photoluminescence quantum yield of `COc1ccc2c(c1)c1c(c3cc(OC)ccc32)=[N+]2C(=C(c3c(C)cc(C)cc3C)c3cc4c5cc(OC)ccc5c5ccc(OC)cc5c4n3[B-]2(F)F)C=1` . Value? 0.001

Endpoint output: photoluminescence quantum yield of `[C-]#[N+]c1ccc(-c2ccc(N)cc2)cc1` . Value? 0.78

Endpoint output: photoluminescence quantum yield of `CC1=N/C(=C\c2cc(N(C)C)ccc2C#N)C(=O)N1C` . Value? 0.19

Endpoint output: photoluminescence quantum yield of `O=c1oc2ccccc2cc1-c1nc2ccccc2o1` . Value? 0.77

Endpoint output: photoluminescence quantum yield of `COc1cccc2cc(-c3ccc([N+](=O)[O-])cc3)c(=O)oc12` . Value? 0.005

Endpoint output: photoluminescence quantum yield of `CCCCC1(CCCC)c2cc(C#Cc3ccc(/C=C(\C)c4ccccc4)cc3)ccc2-c2ccc(C#Cc3ccc(/C=C(\C)c4ccccc4)cc3)cc21` . Value? 0.586

Endpoint output: photoluminescence quantum yield of `F[Si](c1ccccc1)(c1c2ccccc2cc2ccccc12)c1c2ccccc2cc2ccccc12` . Value? 0.17

Endpoint output: photoluminescence quantum yield of `CCCCn1c2ccccc2c2c1c1c3ccccc3n(CCCC)c1c1c3ccccc3n(CCCC)c21` . Value? 0.19

Endpoint output: photoluminescence quantum yield of `CCC1(CC)c2cc(C#Cc3cccs3)ccc2-c2c1c1c(c3c2C(CC)(CC)c2cc(C#Cc4cccs4)ccc2-3)C(CC)(CC)c2cc(C#Cc3cccs3)ccc2-1` . Value? 0.58

Endpoint output: photoluminescence quantum yield of `CCCCCCCCN1c2ccc(C#Cc3ccc(OC)cc3)cc2Sc2cc(C=O)ccc21` . Value? 0.54

Endpoint output: photoluminescence quantum yield of `O=c1oc2cccc3c4cccc5ccc6c7cc(F)ccc7c1c(c23)c6c54` . Value? 0.216

Endpoint output: photoluminescence quantum yield of `CCCCCOc1cc2oc(=O)c3c4ccc(N)cc4c4ccc5cccc6c(c1)c2c3c4c56` . Value? 0.486

Endpoint output: photoluminescence quantum yield of `Nc1ccc2c3cccc4cccc(c5cccc1c52)c43` . Value? 0.58

Endpoint output: photoluminescence quantum yield of `C[Si](C)(C)c1ccc(-c2ccc(-c3ccc(-c4ccc(-c5ccc([Si](C)(C)C)cc5)cc4)c4nsnc34)cc2)cc1` . Value? 0.84

Endpoint output: photoluminescence quantum yield of `C(=C(c1ccccc1)c1ccccc1)c1ccc(-c2ccc(-c3nc4c5ccccc5c5ccccc5c4n3-c3cccc(-c4ccc(C=C(c5ccccc5)c5ccccc5)cc4)c3)cc2)cc1` . Value? 0.145

Endpoint output: photoluminescence quantum yield of `CCOC(=O)C1=CN(c2ccccc2)C=C(C(=O)OCC)C1c1ccccc1` . Value? 0.51

Endpoint output: photoluminescence quantum yield of `C(=C\c1cc(/C=C/c2ccc(-n3c4ccccc4c4ccccc43)cc2)cc(/C=C/c2ccc(-n3c4ccccc4c4ccccc43)cc2)c1)/c1ccc(-n2c3ccccc3c3ccccc32)cc1` . Value? 0.8

Endpoint output: photoluminescence quantum yield of `O=C(O)c1ccc2ccc3cccc4ccc1c2c34` . Value? 0.57

Endpoint output: photoluminescence quantum yield of `Fc1ccc(-c2cc3ccc4cc(-c5ccc(F)cc5)cc5ccc(c2)c3c45)cc1` . Value? 0.07

Endpoint output: photoluminescence quantum yield of `O=C(O)c1ccccc1Nc1cccc(C(F)(F)F)c1` . Value? 0.016

Endpoint output: photoluminescence quantum yield of `Cc1nc(-c2ccc(-n3c4ccccc4c4ccccc43)cc2)cc(-c2ccc(-n3c4ccccc4c4ccccc43)cc2)n1` . Value? 0.61

Endpoint output: photoluminescence quantum yield of C=CC1CN2CCC1CC2[C@@H](OCc1ccccc1)c1ccnc2ccc(O)cc12 (stereo not given in full) . Value? 0.12

Endpoint output: photoluminescence quantum yield of `Cn1cccc1-c1cc(C#N)ccc1C#N` . Value? 0.139

Endpoint output: photoluminescence quantum yield of `CC(=O)O[B-]1(OC(C)=O)OC(/C=C/c2cccc3ccccc23)=CC(/C=C/c2cccc3ccccc23)=[O+]1` . Value? 0.75

Endpoint output: photoluminescence quantum yield of `F[B-]1(F)Oc2ccccc2-c2n(-c3ccc(C(F)(F)F)cc3)c(-c3ccccc3)c(-c3ccccc3)[n+]21` . Value? 0.49

Endpoint output: photoluminescence quantum yield of `F[B-]1(F)n2c(-c3ccccc3)cnc2-c2cccc[n+]21` . Value? 0.22

Endpoint output: photoluminescence quantum yield of `CCn1c2ccccc2c2cc(/C=C3\C(=O)c4ccccc4S3(=O)=O)ccc21` . Value? 0.029

Endpoint output: photoluminescence quantum yield of `c1ccc(-c2cnc3nn4ccccc4c3n2)cc1` . Value? 0.96

Endpoint output: photoluminescence quantum yield of `CN(C)c1ccc(C2=Cc3ccc4ccccc4[n+]3[B-](F)(F)O2)cc1` . Value? 0.517

Endpoint output: photoluminescence quantum yield of `Cn1nc(-c2ccccc2)c2nc3cc(F)ccc3nc21` . Value? 0.38

Endpoint output: photoluminescence quantum yield of `CCc1c(C)c2n(c1C)[B-](F)(F)[N+]1=C(c3ccc[nH]3)c3ccccc3C1=C2` . Value? 0.71

Endpoint output: photoluminescence quantum yield of `CCCCCCCCCc1c2ccccc2cc2c1oc1c3oc4c5oc6cc7ccccc7cc6c5c5ccccc5c4c3c3ccccc3c21` . Value? 0.75
